experiment summary: qHTS assay for small molecule agonists of the antioxidant response element (ARE) signaling pathway measured by Nrf2-dependant transcriptional activity - cell viability counter screen (AID 720653); further: on the % scale 0 is the no-effect control and ±100 the full control effect
conditions used: ARE-bla HepG2 viability, CellTiter-Glo ATP luminescence, 16 h; hits give low values
Text: National Center for Advancing Translational Sciences [NCATS] NIH Chemical Genomics Center [NCGC] U.S. Environmental Protection Agency [EPA] National Institutes of Environmental Health Sciences [NIEHS] National Toxicology Program [NTP] […] The activation of the report gene under culture conditions can be detected by fluorescence intensity. The cytotoxicity of the compounds against the ARE-bla HepG2 cell line was quantified by measuring the intracellular ATP content. […]
Results filed as inconclusive are left out.
measured attribute: max response (%)
Numbers only, in %.

In the examples that follow, each entry is paired with its recorded max response.
>  <compound>
CC(CN1c2ccccc2Sc2ccccc21)N(C)C (configuration not stated)

>  <max response, %>
-20.1

$$$$
>  <compound>
Cc1cc2nc3c(=O)[nH]c(=O)nc-3n(C[C@H](O)[C@H](O)[C@H](O)CO)c2cc1C

>  <max response, %>
0.335

$$$$
>  <compound>
C[C@]12CC[C@@H]3c4ccc(O)cc4CC[C@H]3[C@@H]1CCC2=O

>  <max response, %>
-0.718

$$$$

Could you tell me max response for each of these compounds? They are listed below.
1. CC12CCC(CC1)C(C)(C)O2
2. CN(C)CCOC(C)(c1ccccc1)c1ccccn1 (configuration not stated)
3. CC(O)CN(CCN(CC(C)O)CC(C)O)CC(C)O (configuration not stated)

A:
1. 3.37
2. -11.9
3. -0.296

Batch request: max response per item, same order as input.
1. COc1ccc(Cl)cc1C(=O)NCCc1ccc(S(=O)(=O)NC(=O)NC2CCCCC2)cc1
2. Cc1cccc(Nc2cc(Cl)nc(SCC(=O)O)n2)c1C
3. NCCNCCNCCN
4. COC(=O)C1=C(C)NC(C)=C(C(=O)OC)C1c1ccccc1[N+](=O)[O-]
5. CCCc1c(OCCCCc2nn[nH]n2)ccc(C(C)=O)c1O
6. NC(=O)N/N=C/c1ccc([N+](=O)[O-])o1

A:
-18.1
-4.18
-12.2
-20.5
2.63
-20.9
